Cited source for all entries: ChEMBL document CHEMBL4373740

target: UniProt:P30530; assay: Inhibition of recombinant […] human N-terminal GST-tagged AXL (473 to end residues) expressed in baculovirus infected Sf21 insect cells using biotin as substrate preincubated for 5 mins followed by substrate addition and measured after 30 to 60 mins in presence of ATP by HTRF assay
Sequence (P30530 whole entry): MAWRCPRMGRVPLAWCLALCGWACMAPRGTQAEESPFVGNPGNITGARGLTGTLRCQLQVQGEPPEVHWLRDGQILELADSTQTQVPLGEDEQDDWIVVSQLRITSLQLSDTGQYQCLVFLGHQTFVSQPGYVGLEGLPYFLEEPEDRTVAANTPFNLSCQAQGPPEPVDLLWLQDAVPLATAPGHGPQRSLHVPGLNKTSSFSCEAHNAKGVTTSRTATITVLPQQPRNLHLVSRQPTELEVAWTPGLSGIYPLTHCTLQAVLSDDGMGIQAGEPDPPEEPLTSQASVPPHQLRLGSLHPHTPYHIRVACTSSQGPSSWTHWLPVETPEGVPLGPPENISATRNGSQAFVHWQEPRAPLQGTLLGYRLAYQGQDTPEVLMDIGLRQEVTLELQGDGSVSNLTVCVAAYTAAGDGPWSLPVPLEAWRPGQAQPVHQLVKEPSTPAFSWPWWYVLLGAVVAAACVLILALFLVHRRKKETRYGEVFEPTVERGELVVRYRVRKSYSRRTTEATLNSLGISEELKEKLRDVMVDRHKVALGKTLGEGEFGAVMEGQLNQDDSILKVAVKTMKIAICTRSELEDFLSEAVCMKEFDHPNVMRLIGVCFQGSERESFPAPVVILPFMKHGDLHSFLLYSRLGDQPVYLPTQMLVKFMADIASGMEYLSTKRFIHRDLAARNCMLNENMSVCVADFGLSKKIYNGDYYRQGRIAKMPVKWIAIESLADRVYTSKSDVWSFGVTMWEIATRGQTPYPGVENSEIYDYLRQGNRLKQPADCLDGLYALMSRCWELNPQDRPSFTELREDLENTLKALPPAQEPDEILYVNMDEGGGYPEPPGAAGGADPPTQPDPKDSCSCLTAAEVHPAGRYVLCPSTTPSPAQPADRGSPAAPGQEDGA
READOUT_KIND: pIC50
Quick note: pIC50 means taking -log10 of the concentration in moles per liter.

stdin: I would be grateful if you could share the reported pIC50 for `Cn1cc(-c2ccc(F)cc2)c(=O)c2c(Nc3ccc(Oc4ccnc(NC(=O)C5CC5)c4)c(F)c3)nccc21` .
stdout: 8.09

* * *

system: HT-29; assay: Antiproliferative activity against human HT-29 cells at 10 uM incubated for 72 hrs by MTT assay relative to control; format: functional; details: HT-29, 72 h
READOUT_KIND: inhibition at 10 µM (%)
Numbers only here, please. The scale is %.

O=C(Nc1cc(Oc2ccc(Nc3nccc4[nH]cc(-c5ccc(F)cc5)c(=O)c34)cc2F)ccn1)C1CCCCC1 ... 8.7
COc1cc2nccc(Oc3ccc(NC(=O)C4(C(=O)Nc5ccc(F)cc5)CC4)cc3)c2cc1OC [CABOZANTINIB] ... 29
CC(C)(O)Cn1cc(-c2ccc(F)cc2)c(=O)c2c(Nc3ccc(Oc4ccnc(NC(=O)C5CC5)c4)c(F)c3)nccc21 ... -2.6

# next compound below
stdin: I would be grateful if you could share the reported inhibition at 10 µM for `CC(C)C(=O)Nc1cc(Oc2ccc(Nc3nccc4[nH]cc(-c5ccc(F)cc5)c(=O)c34)cc2F)ccn1` .
stdout: 83.4
